In this section we review reported Plant response rating, Sunflower values for a set of compounds.
Tested on: sunflower (common oilseed sunflower, Helianthus annuus)
ASSAY OVERVIEW: Test B pre-/postemergence plant response
Format: in vivo
MEASUREMENT CONDITIONS: Preemergence, 125 g ai/ha; scale 0 to 100, 0 no effect, 100 complete control

Consider the following illustrative entries.
| COMPOUND | Plant response rating, Sunflower |
| --- | --- |
| O=C1CCCC(O)=C1C(=O)c1cnc(-c2cccs2)n(-c2ccccc2)c1=O [Compound 66] | 0 |
| CCCc1ncc(C(=O)C2=C(O)CCCC2=O)c(=O)n1CCC [Compound 72] | 65 |
| Cc1ccc(Cl)cc1-n1c(-c2ccccc2)ncc(C(=O)C2=C(O)CCCC2=O)c1=O [Compound 52] | 70 |

Problem: Form field: reported Plant response rating, Sunflower of CCCCc1ncc(C(=O)C2=C(O)CCCC2=O)c(=O)n1-c1ccccc1C [Compound 62]
Solution: 10

====

In this section we review reported Plant response rating, Corn values for a set of compounds.
Tested on: corn (Zea mays)
ASSAY OVERVIEW: Test A pre-/postemergence plant response
Assay type: in vivo
MEASUREMENT CONDITIONS: Postemergence, 125 g ai/ha; 0 to 100 scale where 0 is no effect and 100 is complete control
Answer using only a numeral; do not append any unit.

Consider the following illustrative entries.
| COMPOUND | Plant response rating, Corn |
| --- | --- |
| COCCn1c(-c2ccn(C)n2)ncc(C(=O)C2=C(O)CCCC2=O)c1=O | 0 |
| CCCCCCn1c(-c2ccccc2)ncc(C(=O)C2=C(O)CCCC2=O)c1=O | 0 |
| O=C1CCCC(O)=C1C(=O)c1cnc(-c2ccccc2)n(C2CCCCCC2)c1=O | 10 |
| CCn1c(-c2cc(F)cc(F)c2)ncc(C(=O)C2=C(O)CCCC2=O)c1=O | 0 |
| O=C(C1=C(O)C2CCC(C2)C1=O)c1cnc(-c2ccccc2)n(CC2CCCO2)c1=O (centres unmarked) | 0 |
| O=C1CCCC(O)=C1C(=O)c1cnc(C2CCCC2)n(-c2ccccc2)c1=O | 0 |
| Cc1ccc(F)cc1-n1c(-c2cc(F)cc(F)c2)ncc(C(=O)C2=C(O)CCCC2=O)c1=O | 10 |

Then there is this compound:
Problem: Form field: reported Plant response rating, Corn of O=C1CCCC(O)=C1C(=O)c1cnc(C2CC2)n(C2CCCCC2)c1=O
Solution: 20

====

System: nightshade (eastern black nightshade, Solanum ptycanthum)
ASSAY OVERVIEW: Test B pre-/postemergence plant response
Type: in vivo
MEASUREMENT CONDITIONS: Preemergence, 125 g ai/ha; scale 0 to 100, 0 no effect, 100 complete control
In this section we review reported Plant response rating, Nightshade values for a set of molecules.
Answer using only a numeral; do not append any unit.

| MOLECULE | TARGET | Plant response rating, Nightshade |
| --- | --- | --- |
| O=C1CCCC(O)=C1C(=O)c1cnc(-c2cccs2)n(-c2ccccc2)c1=O [Compound 66] | nightshade (eastern black nightshade, Solanum ptycanthum) | 98 |

Problem: Form field: reported Plant response rating, Nightshade of CCCCc1ncc(C(=O)C2=C(O)CCCC2=O)c(=O)n1-c1ccccc1C [Compound 62]
Solution: 98

Problem: Follow-up item: CCCc1ncc(C(=O)C2=C(O)CCCC2=O)c(=O)n1-c1ccccc1 [Compound 217]
Solution: 100

Problem: Follow-up item: Cc1ccc(Cl)cc1-n1c(-c2ccccc2)ncc(C(=O)C2=C(O)CCCC2=O)c1=O [Compound 52]
Solution: 98

Problem: Follow-up item: COCCCn1c(-c2cc(F)cc(F)c2)ncc(C(=O)C2=C(O)C3CCC(C3)C2=O)c1=O (stereo not drawn) [Compound 244]
Solution: 100

Problem: Follow-up item: CCCCn1c(CCC)ncc(C(=O)C2=C(O)CCCC2=O)c1=O [Compound 75]
Solution: 98

====

Tested on: morningglory (Ipomoea spp.)
ASSAY OVERVIEW: Test A pre-/postemergence plant response
Assay type: in vivo
MEASUREMENT CONDITIONS: Postemergence, 500 g ai/ha; 0 to 100 scale, 0 = no effect, 100 = complete control; approx. ten days
ENDPOINT: Plant response rating, Morningglory
Answer using only a numeral; do not append any unit.

| SMILES RECORD | TARGET | Plant response rating, Morningglory |
| --- | --- | --- |
| O=C1CCCC(O)=C1C(=O)c1cnc(-c2ccccc2)n(C2CCOCC2)c1=O | morningglory (Ipomoea spp.) | 100 |
| O=C1CCCC(O)=C1C(=O)c1cnc(C2CCC2)n(-c2ccccc2)c1=O | morningglory (Ipomoea spp.) | 100 |
| O=C1CCCC(O)=C1C(=O)c1cnc(-c2ccccc2)n(C2CCCCCC2)c1=O | morningglory (Ipomoea spp.) | 100 |
| CCCn1c(-c2ccn(C)n2)ncc(C(=O)C2=C(O)CCCC2=O)c1=O | morningglory (Ipomoea spp.) | 90 |

Problem: Form field: reported Plant response rating, Morningglory of CCn1c(-c2cc(F)cc(F)c2)ncc(C(=O)C2=C(O)CCCC2=O)c1=O
Solution: 100

Problem: Follow-up item: CCCn1c(-c2ccsc2)ncc(C(=O)C2=C(O)CCCC2=O)c1=O
Solution: 100

====

Tested on: umbrella sedge (Cyperus difformis)
ASSAY OVERVIEW: Test B flooded paddy test
Type: in vivo
MEASUREMENT CONDITIONS: 250 g ai/ha; flooded paddy test; visual rating on 0 to 100 scale (0 no effect, 100 complete control) after 13 to 15 days
Excerpt: Plant species in the flooded paddy test consisted of rice (Oryza sativa), umbrella sedge (Cyperus difformis), ducksalad (Heteranthera limosa) and barnyardgrass (Echinochloa crus-galli) grown to the 2-leaf stage for testing. […] Treated plants and controls were maintained in a greenhouse for 13 to 15 days, after which time all treated plants were visually evaluated and compared to controls. […]
Is Plant response rating, Flood, Sedge, Umbrella at least 80? Then T. If not, F.

Reference set, count: 4
| COMPOUND | CLASSIFICATION |
| --- | --- |
| COCCn1c(-c2ccco2)ncc(C(=O)C2=C(O)CCCC2=O)c1=O [Compound 111] | T |
| O=C1CCCC(O)=C1C(=O)c1cnc(C2CCCC2)n(-c2ccccc2)c1=O [Compound 92] | T |
| CCCCn1c(CCC)ncc(C(=O)C2=C(O)CCCC2=O)c1=O [Compound 75] | F |
| CCc1ccc(-n2c(-c3cccc(F)c3)ncc(C(=O)C3=C(O)CCCC3=O)c2=O)cc1 [Compound 204] | T |

Problem: Confirm if Plant response rating, Flood, Sedge, Umbrella reported for the compound Cc1cccc(-n2c(-c3ccccc3)ncc(C(=O)C3=C(O)CCCC3=O)c2=O)c1F [Compound 58] is 80 or above.
Solution: F

Problem: Follow-up item: O=C1CCCC(O)=C1C(=O)c1cnc(-c2cccc(Br)c2)n(C2CCCCC2)c1=O [Compound 206]
Solution: T

Problem: Follow-up item: Cc1ccc(F)c(-n2c(-c3ccccc3)ncc(C(=O)C3=C(O)CCCC3=O)c2=O)c1 [Compound 51]
Solution: T

Problem: Follow-up item: O=C1CCCC(O)=C1C(=O)c1cnc(-c2ccco2)n(C2CCCCC2)c1=O [Compound 188]
Solution: T

Problem: Follow-up item: CCCc1ncc(C(=O)C2=C(O)CCCC2=O)c(=O)n1-c1cccc(C)c1 [Compound 79]
Solution: F

====

System: johnsongrass (Sorghum halepense)
ASSAY OVERVIEW: Test B pre-/postemergence plant response
Assay type: in vivo
MEASUREMENT CONDITIONS: Postemergence, 125 g ai/ha; visual rating after 13 to 15 days, scale 0 (no effect) to 100 (complete control)
Description: […] Treated plants and controls were maintained in a greenhouse for 13 to 15 days, after which time all treated plants were visually evaluated and compared to controls. […]
ENDPOINT: Plant response rating, Johnsongrass

| SMILES RECORD | TARGET | Plant response rating, Johnsongrass |
| --- | --- | --- |
| Cc1cccc(-n2c(-c3ccccc3)ncc(C(=O)C3=C(O)CCCC3=O)c2=O)c1C | johnsongrass (Sorghum halepense) | 45 |

Then there is this compound:
Problem: Form field: reported Plant response rating, Johnsongrass of O=C1CCCC(O)=C1C(=O)c1cnc(-c2cccc(Br)c2)n(-c2ccccc2)c1=O
Solution: 100

====

In this section we review reported Morningglory plant response rating values for a set of compounds.
Tested on: morningglory (Ipomoea coccinea)
ASSAY OVERVIEW: Test B pre-/postemergence plant response
Type: in vivo
MEASUREMENT CONDITIONS: Preemergence, 250 g ai/ha; 0 to 100 scale
Answer using only a numeral; do not append any unit.

Consider the following illustrative entries.
| COMPOUND | ENDPOINT | MEASURED RESULT |
| --- | --- | --- |
| COCCCn1c(-c2cc(F)cc(F)c2)ncc(C(=O)C2=C(O)C3CCC(C3)C2=O)c1=O (stereo not drawn) [Compound 244] | Morningglory plant response rating | 100 |
| CCCCn1c(C2CC2)ncc(C(=O)C2=C(O)CCCC2=O)c1=O [Compound 193] | Morningglory plant response rating | 95 |
| COCCCn1c(-c2ccccc2)ncc(C(=O)C2=C(O)CCCC2=O)c1=O [Compound 81] | Morningglory plant response rating | 95 |
| CCCCn1c(CCC)ncc(C(=O)C2=C(O)CCCC2=O)c1=O [Compound 75] | Morningglory plant response rating | 90 |
| CCc1cccc(-n2c(-c3ccccc3)ncc(C(=O)C3=C(O)CCCC3=O)c2=O)c1 [Compound 220] | Morningglory plant response rating | 90 |

Then there is this compound:
Problem: Form field: reported Morningglory plant response rating of CCCc1ncc(C(=O)C2=C(O)CCCC2=O)c(=O)n1-c1ccccc1 [Compound 217]
Solution: 0

Each recorded value in this set is attributed to patent US8952024B2.
